experiment.summary: compound effects on lung adenocarcinoma cell viability – A549, calcein-AM fluorescence, 48 h, basal, profiling panel (AID 1162); also: test concentration not given here
recorded.conditions: higher = more signal
Entry flag: Satisfied if z-score reaches -0.06; Not satisfied if it does not.

Solved cases below.
INSERT INTO assay_data (compound, answer_label) VALUES
  ('C#CCOc1ccc(C[C@@H](C(=O)OC)N(CC#C)[C@@H](/C=C/C2CC2)[C@H](O)Cc2ccccc2)cc1', 'Not satisfied'),
  ('[N-]=[N+]=Nc1ccccc1C[C@@]1(C(=O)N2CCCCC2)N=C(c2ccc(OCCCO)cc2)O[C@@H]1c1ccccc1', 'Satisfied');

Check the entry CC(C)CNC(=O)[C@@]1(Cc2ccccc2I)c2ccccc2C(=O)N(Cc2ccccc2C(F)(F)F)[C@H]1c1ccc(CO)cc1 : does z-score equal or exceed -0.06?
Not satisfied

* * *

experiment.summary: Pseudomonas biofilm growth suppression – PAO1 strain, BacTiter-Glo luminescence, LB-PBS, primary screen (AID 1144)
recorded.conditions: P. aeruginosa PAO1 biofilm, 12 h, higher = more signal
What z-score was measured for each of the following?
Answers are plain numbers.

INSERT INTO measurements (compound, measured_property, value_observed) VALUES
  ('C=C(C)[C@@H]1CC=C(C(O)C2C=CC3C(=O)NC(=O)C3N2Nc2ccc(Cl)cc2Cl)CC1 (some centres not stated)', 'z-score', -0.995),
  ('Cc1ccc(C2C3C(=O)CC4C(=O)N(c5ccccc5)C(=O)C4C3CN2S(=O)(=O)c2ccc(C)cc2)cc1 (configuration not stated)', 'z-score', 0.538),
  ('COc1cc2c(cc1O)C(c1cccs1)N(Cc1ccc([N+](=O)[O-])o1)CC2 (configuration not stated)', 'z-score', -0.371),
  ('CCCC[C@@H]1C[C@H]1[C@@H](NC(=O)c1cccnc1)c1ccc(Cl)cc1', 'z-score', -0.128),
  ('C=C(CCCC)/C(=C/C[C@H](OC(C)=O)c1ccccc1OCCO)c1cnc2ccccc2c1', 'z-score', 0.489);

Please look at the items below and tell me z-score for each one, in order.
1. C=C(/C(=C/C[C@H](OC(C)=O)c1ccc(OCCO)cc1)c1cc(C(=O)OC)ccc1OC)C(C)C
2. O=C1[C@H]2C=C(I)[C@H](C[C@@H]2OCCCCO)[C@@]12CO2

1: -0.357; 2: -0.0455

* * *

System: Sam68 (KHDRBS1)
experiment.summary: compounds binding KHDRBS1 protein – biochemical, small-molecule microarray, 635 nm fluorescence, primary screen (AID 1125);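 also: score merges 667 nm channel intensity with signal to noise over triplicate slides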
recorded.conditions: higher = more signal
What composite z-score was measured for each of the following?
Numbers only.

INSERT INTO measurements (molecule, value_observed) VALUES
  ('O=C(CS)NCCCCCNC(=O)[C@H]1C[C@H]2C(=O)NCC(=O)N2[C@H]1c1cccc(OCCO)c1', -0.956),
  ('CN1C(=O)C2C=CC(C(O)c3c(F)cccc3Cl)N(NC(=O)OC(C)(C)C)C2C1=O (stereo unspecified)', 1.22),
  ('COCCCNC(=O)[C@@]1(Cc2ccccc2)N=C(c2ccc(OCCCO)cc2)O[C@H]1c1ccccc1CN=[N+]=[N-]', 1.32);

Please look at the items below and tell me composite z-score for each one, in order.
1. Cc1ccc(S(=O)(=O)N2C[C@@H](C(=O)O)[C@H](Sc3ccccc3)C[C@H]2c2ccccc2)cc1
2. [N-]=[N+]=NCc1ccccc1[C@@H]1OC(c2ccc(OCCCO)cc2)=N[C@]1(CCS(=O)(=O)c1ccccc1)C(=O)N1CCCCC1
3. C#CCN1[C@H](/C=C/C2CC2)[C@H](Cc2ccccc2)OC(=O)[C@@H]1Cc1ccccc1
4. [N-]=[N+]=NCc1ccccc1[C@@H]1OC(c2ccc(OCCCO)cc2)=N[C@]1(CCS(=O)(=O)c1ccccc1)C(N)=O

1. 1.29
2. 1.29
3. 0.257
4. 1.28

Please look at the items below and tell me composite z-score for each one, in order.
1. CCOC(=O)C[C@H]1[C@H](OC(=O)c2ccc(C(=O)c3ccccc3)cc2)[C@@H](NC(=O)c2ccccc2)c2cc(OCCCO)ccc2N1C(=O)c1ccccc1
2. COC(=O)C[C@H]1O[C@@H](CCc2ccccc2)[C@@H](C)[C@@H]1[Si](C)(C)c1ccc(OC)cc1
3. O[C@@H](Cc1ccccc1)[C@@H](/C=C/C1CC1)NCc1cccc(Cl)c1
4. CC1CC/C=C\[C@H]2OC34C=CCN(Cn5nnc6ccccc65)C(=O)[C@H]3N(CCCCCO)C(=O)[C@@H]4C2C(=O)O1 (stereo partly specified)

1. 1.23
2. -1.1
3. -0.53
4. 0.479

Please look at the items below and tell me composite z-score for each one, in order.
1. COc1ccc(C(O)C2C=CC3C(=O)N(C)C(=O)C3N2NC(=O)OC(C)(C)C)c2ccccc12 (stereo unspecified)
2. OCCCC1=CC(C2CC2)N(Cc2cccc(OC(F)(F)F)c2)CC1 (stereo unspecified)
3. COc1cc(CO)cc(I)c1O[C@H]1C=C(C(=O)NCCO)C[C@@H](NC[C@@H]2CCCO2)[C@@H]1O
4. [N-]=[N+]=Nc1ccccc1C[C@]1(C(=O)NCC(O)CO)N=C(c2ccc(OCCCO)cc2)O[C@H]1c1ccccc1 (stereo partly specified)

1. 1.3
2. -0.441
3. 1.16
4. 1.09

Please look at the items below and tell me composite z-score for each one, in order.
1. CCOC(=O)C1=CCC(c2ccc(F)cc2)N(S(=O)(=O)c2ccc(C)cc2)C1 (stereo unspecified)
2. Cc1ccc(S[C@]2(C(=O)O)CC(=O)N(C(C)C)[C@@H]2c2ccc(CO)cc2)cc1
3. COc1ccc([Si](C)(C)[C@@H]2[C@@H](CC(=O)N3Cc4ccccc4C[C@H]3CO)O[C@]3(C(=O)N(Cc4cccc(N5CCC5=O)c4)c4ccccc43)[C@H]2C)cc1
4. O=C(NCc1ccccc1)[C@@H]1c2ccccc2C(=O)N(C2Cc3ccccc3C2)[C@H]1c1ccc(CO)cc1
5. COC(=O)C(CC#Cc1ccc2c(c1)[C@]1(C(=O)N2)[C@H](c2ccc(O)cc2)N2[C@H](c3ccccc3)[C@H](c3ccccc3)OC(=O)[C@H]2[C@@H]1C(=O)N1CCN(c2ncccn2)CC1)C(=O)OC
6. C=CC[C@]1(C(N)=O)COC(c2ccc(OCCCO)cc2)=N1
7. O=C1C2C=CC(C(O)C=Cc3ccc([N+](=O)[O-])cc3)N(n3cnnc3)C2C(=O)N1Cc1ccccc1 (stereo unspecified)
8. COc1ccc(NC(=O)O[C@H]2[C@H](OC(=O)c3cc4ccccc4[nH]3)[C@@H](OC(=O)c3cc4ccccc4[nH]3)[C@@H](OC)O[C@@H]2CO)cc1

1: 0.376; 2: 0.462; 3: 1.22; 4: 0.958; 5: 1.28; 6: -0.133; 7: 1.19; 8: 0.156

* * *

Tested on: Noggin (protein binding on small-molecule microarray)
experiment.summary: small molecules binding Noggin protein – biochemical, 635/667 nm fluorescence, primary screen (AID 1095);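 also: score merges 667 nm feature fluorescence with signal to noise over triplicate slides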
recorded.conditions: 635 nm fluorescence, higher = more signal
measured.property: composite z-score
Answers are plain numbers.

Consider the worked cases shown below.
INSERT INTO measurements (molecule, measured_property, value_observed) VALUES
  ('C=C(C)[C@@H]1CC=C(C(O)C2C=CC3C(=O)NC(=O)C3N2Nc2ccc(Cl)cc2Cl)CC1 (stereo partly drawn)', 'composite z-score', -0.821),
  ('C=CCOC(=O)[C@H]1[C@@H]2C(=O)O[C@@H](c3ccccc3)[C@@H](c3ccccc3)N2[C@@H](c2ccc(OCCOC(=O)[C@@H]3C[C@@H]4C(=O)N5CCC[C@H]5C(=O)N4[C@@H]3c3cccc(OCCO)c3)cc2)[C@]12C(=O)Nc1ccc(I)cc12', 'composite z-score', 1.86);

In the following, a different molecule is considered.
Given the entry CCCCN1CC=CC23O[C@@H]4/C=C\CCCOC(=O)C4[C@H]2C(=O)N(CCCO)[C@@H]3C1=O (stereo partly drawn) , report its measured composite z-score.
-0.991

* * *

experiment.summary: blood-stage malaria parasite viability loss – strain 3D7, DAPI fluorescence, 100 nL, primary screen (AID 1184);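 also: parasites grown inside human red blood cells in medium with human serum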
recorded.conditions: P. falciparum 3D7 growth, 3 d, higher = more signal
What z-score was measured for each of the following?
Give bare numbers.

Consider the worked cases shown below.
INSERT INTO results (compound, value_observed) VALUES
  ('O=C(NCc1ccccc1)[C@@H]1c2ccccc2C(=O)N(C2Cc3ccccc3C2)[C@H]1c1ccc(CO)cc1', -0.276),
  ('CN(C)CCCCCCNC(=O)[C@@H]1C[C@@H]2C(=O)N[C@@H](CCCC[N+](C)(C)C)C(=O)N2[C@@H]1c1ccc(O)cc1', 1.99),
  ('COC(=O)C[C@H]1O[C@@H](CCc2ccccc2)[C@@H](C)[C@@H]1[Si](C)(C)c1ccc(OC)cc1', -1.63);

Please look at the items below and tell me z-score for each one, in order.
1. CCCCC(=C=CC[C@@H](O)c1ccc(CO)o1)CCO
2. COC(=O)c1c(CC[C@@H](CO)NC(=O)NCCc2c[nH]c3ccccc23)oc(C(=O)Cc2ccccc2)c1C(=O)OC
3. COc1ccccc1CN1C(=O)c2ccccc2[C@@]2(Cc3ccccc3N(CCCN(C)C)C2=O)[C@@H]1c1ccc(CO)cc1
4. C=C(C)[C@@H]1CC=C(C(O)C2C=CC3C(=O)NC(=O)C3N2Nc2ccc(Cl)cc2Cl)CC1 (stereo not given in full)
5. O=c1cccc(-c2ccccc2Cl)o1

[0.0728, -0.0066, -1.3, -0.52, 0.382]
